Molecular target: PDE4B: The catalytic domain of human PDE4B from S152-S528 (Homo sapiens, UniProt Q07343)
Construct: His6 (N); thrombin cleavage site (N); made in house; host or cells: E. coli
Sequence (Q07343 with tags, fused parts or gaps): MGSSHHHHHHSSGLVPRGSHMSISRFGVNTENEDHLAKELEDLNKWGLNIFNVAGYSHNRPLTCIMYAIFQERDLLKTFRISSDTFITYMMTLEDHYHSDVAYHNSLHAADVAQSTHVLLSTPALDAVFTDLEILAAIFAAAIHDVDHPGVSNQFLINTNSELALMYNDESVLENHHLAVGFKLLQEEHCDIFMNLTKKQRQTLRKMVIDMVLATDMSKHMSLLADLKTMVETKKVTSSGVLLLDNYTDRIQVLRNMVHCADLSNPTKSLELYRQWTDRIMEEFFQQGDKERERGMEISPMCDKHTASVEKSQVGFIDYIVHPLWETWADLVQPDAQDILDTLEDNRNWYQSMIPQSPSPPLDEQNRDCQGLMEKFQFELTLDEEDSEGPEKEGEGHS
Assay: PDE4 IC50 determination by Scintillation Proximity Assay, PDE4B
Type: biochemical
Conditions: Table 3A, Formula III compounds; read-out: IC50 PDE4B
# reported IC50; entries follow

The examples below pair each entry with its known result.
| molecule | targetDesc | result |
| --- | --- | --- |
| COc1cc(NS(=O)(=O)c2cccc(F)c2)c2ncccc2c1 [Compound 3-56] | PDE4B: The catalytic domain of human PDE4B from S152-S528 (Homo sapiens, UniProt Q07343) | > 10 µM |
| COc1cc(NS(=O)(=O)c2cc(F)ccc2C)c2ncccc2c1 [Compound 3-49] | PDE4B: The catalytic domain of human PDE4B from S152-S528 (Homo sapiens, UniProt Q07343) | > 10 µM |
| O=S(=O)(Nc1cccc2cccnc12)c1ccc(-c2cnco2)s1 [Compound 3-34] | PDE4B: The catalytic domain of human PDE4B from S152-S528 (Homo sapiens, UniProt Q07343) | < 10 µM |
| Cc1ccc2cccnc2c1NS(=O)(=O)c1cc(Cl)c(Cl)s1 [Compound 3-8] | PDE4B: The catalytic domain of human PDE4B from S152-S528 (Homo sapiens, UniProt Q07343) | > 10 µM |
| COc1cc(NS(=O)(=O)c2ccc(-c3cc(C(F)(F)F)on3)s2)c2ncccc2c1 [Compound 3-27] | PDE4B: The catalytic domain of human PDE4B from S152-S528 (Homo sapiens, UniProt Q07343) | > 10 µM |

From here, focus on the item given below.
Q: Fill in: IC50 of COc1cc(NS(=O)(=O)c2ccc(-c3ccccn3)s2)c2ncccc2c1 [Compound 3-31] is ___
A: < 10 µM

* * *

Target: PDE4B: The catalytic domain of human PDE4B from S152-S528 (Homo sapiens, UniProt Q07343)
Construct: His6 (N); thrombin cleavage site (N); made in house; host or cells: E. coli
Assay: PDE4 IC50 determination by Scintillation Proximity Assay, PDE4B
Assay type: biochemical
Details: Table 3A, Formula III compounds; read-out: IC50 PDE4B
Experimental: IC50s were determined by Scintillation Proximity Assay (SPA). The principle of the assay is based on the fact that cAMP, the PDE4 substrate, binds weakly to Yittrium Silicate SPA beads, whereas AMP, the product of PDE4 hydrolysis binds strongly. Thus, the extent of PDE4 hydrolysis of a sample of [^3H]cAMP can be measured because only the [^3H]AMP produced by PDE4 hydrolysis will bind to the SPA beads and produce a scintillation signal. PDE4 enzymes used for IC50 assays were: […]
pIC50: −log10 of the molar value.
endpointName: pIC50

Q: Fill in: pIC50 of CSc1nccc(-c2ccc(S(=O)(=O)Nc3cccc4cccnc34)s2)n1 is ___
A: > 5.00

Q: Fill in: pIC50 of COc1ccc(S(=O)(=O)Nc2cc(OC)cc3cccnc23)cc1 is ___
A: < 5.00

Q: Fill in: pIC50 of CSc1nc(Nc2ccc(S(=O)(=O)Nc3cccc4cccnc34)cc2)c2ccccc2n1 is ___
A: > 5.00

Q: Fill in: pIC50 of O=S(=O)(Nc1cccc2cccnc12)c1cc(Cl)c(Cl)s1 is ___
A: < 5.00

Q: Fill in: pIC50 of Cc1ccc2cccnc2c1NS(=O)(=O)c1ccc(Br)s1 is ___
A: < 5.00

Q: Fill in: pIC50 of COc1cc(NS(=O)(=O)c2ccc(C)cc2)c2ncccc2c1 is ___
A: < 5.00

Q: Fill in: pIC50 of CSc1ncc(-c2ccc(S(=O)(=O)N(C)c3cccc4cccnc34)s2)cn1 is ___
A: > 5.00

Q: Fill in: pIC50 of Cc1ccc2cccnc2c1NS(=O)(=O)c1cccs1 is ___
A: < 5.00

Q: Fill in: pIC50 of Cc1nccc(-c2cccc(S(=O)(=O)Nc3ccc(Br)c4cccnc34)c2)n1 is ___
A: < 5.00

* * *

Molecular target: PDE4D (Homo sapiens, UniProt Q08499)
Construct: PDE4D: The catalytic domain of human PDE4B from S3 16-V692; His6 (N); thrombin cleavage site (N); made in house; host or cells: E. coli
Sequence (Q08499 380-756): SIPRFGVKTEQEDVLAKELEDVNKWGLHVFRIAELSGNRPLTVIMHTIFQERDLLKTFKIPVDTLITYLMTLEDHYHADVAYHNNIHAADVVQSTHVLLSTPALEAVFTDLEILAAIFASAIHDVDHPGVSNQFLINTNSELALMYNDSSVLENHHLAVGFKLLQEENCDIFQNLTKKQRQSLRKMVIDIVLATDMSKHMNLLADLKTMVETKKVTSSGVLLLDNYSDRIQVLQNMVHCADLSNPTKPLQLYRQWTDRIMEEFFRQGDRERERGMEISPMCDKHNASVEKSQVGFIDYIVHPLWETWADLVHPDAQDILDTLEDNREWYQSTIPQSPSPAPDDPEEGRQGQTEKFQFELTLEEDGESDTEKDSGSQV
Experiment: PDE4 IC50 determination by Scintillation Proximity Assay, PDE4D
Type: biochemical
Settings: Table 1B, Formula I compounds; read-out: IC50 PDE4D
endpointName: IC50

| compound | IC50 |
| --- | --- |
| CSc1cccc(Nc2sc(C(=O)c3cc(-c4ccccc4)no3)c(N)c2C#N)c1 | < 10 µM |

From here, focus on the item given below.
Q: Fill in: IC50 of COC(=O)C(CC(C)C)Nc1sc(C(=O)c2ccc(C)cc2C)c(N)c1C#N (stereo not drawn) is ___
A: > 10 µM

* * *

Biological target: PDE4D (Homo sapiens, UniProt Q08499)
Construct: PDE4D: The catalytic domain of human PDE4B from S3 16-V692; His6 (N); thrombin cleavage site (N); made in house; host or cells: E. coli
Assay: PDE4 IC50 determination by Scintillation Proximity Assay, PDE4D
Assay type: biochemical
Conditions: Table 1B, Formula I compounds; read-out: IC50 PDE4D
endpointName: IC50

The examples below pair each entry with its known result.
| querySmiles | endpointName | result |
| --- | --- | --- |
| N#Cc1c(Nc2ccc(Oc3ccccc3)cc2)sc(C(=O)c2ccccc2)c1N | IC50 | < 10 µM |
| Cc1onc(-c2ccccc2)c1C(=O)c1sc(Nc2ccccc2F)c(C#N)c1N | IC50 | < 10 µM |
| CCNC(=O)c1cc(C(=O)c2sc(NC3CCCC3)c(C#N)c2N)on1 | IC50 | < 10 µM |

From here, focus on the item given below.
Q: Record N#Cc1c(NCCN2CCCCC2)sc(C(=O)c2ccccc2Cl)c1N : what is its IC50 with PDE4D (Homo sapiens, UniProt Q08499)?
A: > 10 µM

* * *

Tested on: TNF alpha production in LPS-stimulated human blood (Buffy coat)
Test: TNF alpha production by stimulation with LPS in whole blood cultures
Assay type: cell-based
Settings: Homo sapiens; Table 1B, Formula I compounds; read-out: IC50 h TNFα
# reported IC50; entries follow

The examples below pair each entry with its known result.
| compound | targetDesc | IC50 |
| --- | --- | --- |
| CCC(C)Nc1sc(C(=O)c2cc(-c3ccccc3)no2)c(N)c1C#N (stereo not shown) | TNF alpha production in LPS-stimulated human blood (Buffy coat) | > 10 µM |
| NC(=O)c1c(NC2CCCC2)sc(C(=O)c2cc(-c3ccccc3)no2)c1N | TNF alpha production in LPS-stimulated human blood (Buffy coat) | > 10 µM |
| N#Cc1c(NC2CCCC2)sc(C(=O)c2cc(-c3ccc(N)cc3)no2)c1N | TNF alpha production in LPS-stimulated human blood (Buffy coat) | > 10 µM |

From here, focus on the item given below.
Q: Fill in: IC50 of Cc1c(NC2CCCC2)sc(C(=O)c2cc(-c3ccccc3)no2)c1N is ___
A: < 10 µM

* * *

Biological target: PDE4B: The catalytic domain of human PDE4B from S152-S528 (Homo sapiens, UniProt Q07343)
Construct: His6 (N); thrombin cleavage site (N); made in house; host or cells: E. coli
Experiment: PDE4 IC50 determination by Scintillation Proximity Assay, PDE4B
Type: biochemical
Conditions: Table 3A, Formula III compounds; read-out: IC50 PDE4B
pIC50: −log10 of the molar value.
# reported pIC50; entries follow

Q: Fill in: pIC50 of COc1cc(NS(=O)(=O)c2ccc(S(=O)(=O)c3ccccc3)s2)c2ncccc2c1 is ___
A: > 5.00

Q: Fill in: pIC50 of O=S(=O)(Nc1cccc2cccnc12)c1ccc(N2CCOCC2)cc1 is ___
A: > 5.00

* * *

Molecular target: full-length human PDE4B2 isozyme (Homo sapiens, UniProt Q07343)
Construct: The full-length human PDE4B2 isozyme; His6 (N); TEV cleavage site (N); made in house; host or cells: baculovirus infected insect cells (unpurified lysate)
Sequence (Q07343 1-564 isoform Q07343-2): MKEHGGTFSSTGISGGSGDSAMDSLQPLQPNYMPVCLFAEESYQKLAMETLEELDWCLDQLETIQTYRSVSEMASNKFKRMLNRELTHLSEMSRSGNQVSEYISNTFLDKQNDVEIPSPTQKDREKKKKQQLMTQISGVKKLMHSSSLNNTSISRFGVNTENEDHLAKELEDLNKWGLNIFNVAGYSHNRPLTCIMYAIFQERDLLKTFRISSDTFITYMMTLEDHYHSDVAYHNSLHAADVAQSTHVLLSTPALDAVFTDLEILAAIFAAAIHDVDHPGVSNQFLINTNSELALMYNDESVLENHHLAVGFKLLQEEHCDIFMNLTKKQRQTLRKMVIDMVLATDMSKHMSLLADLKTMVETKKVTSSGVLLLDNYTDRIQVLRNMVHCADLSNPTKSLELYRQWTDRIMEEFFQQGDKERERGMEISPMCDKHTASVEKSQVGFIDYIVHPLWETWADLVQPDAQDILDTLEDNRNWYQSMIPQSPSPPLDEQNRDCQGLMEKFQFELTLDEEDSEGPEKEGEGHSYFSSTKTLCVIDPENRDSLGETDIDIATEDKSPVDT
Assay: PDE4 IC50 determination by Scintillation Proximity Assay, PDE4B2
Type: biochemical
Details: Table 1B, Formula I compounds; read-out: IC50 PDE4B2
# reported IC50; entries follow

| molecule | IC50 |
| --- | --- |
| N#Cc1c(Nc2ccc(Oc3ccccc3)cc2)sc(C(=O)c2ccccc2Cl)c1N [Compound 1-161] | < 10 µM |
| N#Cc1c(Nc2ccccc2F)sc(C(=O)c2ccc(-c3ccccn3)s2)c1N [Compound 1-67] | < 10 µM |
| NC(=O)c1c(N)sc(C(=O)c2cc(-c3ccccc3)no2)c1N [Compound 1-255] | > 10 µM |

From here, focus on the item given below.
Q: Fill in: IC50 of N#Cc1c(Nc2ccco2)sc(C(=O)c2cc(-c3ccccc3)no2)c1N [Compound 1-208] is ___
A: < 10 µM
